Biological target: mPGES-1 (Homo sapiens, UniProt O14684)
Sequence (O14684 whole entry): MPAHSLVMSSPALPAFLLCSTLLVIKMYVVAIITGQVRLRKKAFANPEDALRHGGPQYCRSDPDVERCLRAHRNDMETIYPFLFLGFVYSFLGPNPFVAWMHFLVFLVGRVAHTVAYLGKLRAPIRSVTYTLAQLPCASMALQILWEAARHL
Assay: mPGES-1 enzyme assay (HTRF detection of PGE2)
Format: biochemical
Design: made in house; host or cells: Rosetta E. coli (membrane/microsome fraction)
Settings: recombinant human mPGES-1 microsomes, PGH2 2 μM, Table A; read-out: mPGES-1 inhibitory effect, IC50, enzyme assay
Below, each entry is listed with its recorded pIC50.
Quick note: pIC50 means taking -log10 of the concentration in moles per liter.

CN(Cc1nncn1C)c1nc2c(cc1C(=O)N[C@H]1CC[C@H](C(F)(F)F)CC1)nc(Nc1c(Cl)ccc(CNC(=O)C(C)(C)C)c1Cl)n2C ... 8.40
CC(NC(=O)c1cc2nc(Nc3c(Cl)ccc(CNC(=O)C(C)(C)C)c3Cl)n(C)c2nc1N1CCC(C(F)(F)F)CC1)c1cccs1 (stereo not drawn) ... 8.40
Cn1c(Nc2c(Cl)ccc(CNC(=O)C(C)(C)C)c2Cl)nc2cc(C(=O)N[C@H](c3ccccc3)C(F)(F)F)c(N3CCC(C(F)(F)F)CC3)nc21 ... 8.70

pIC50 measured on CC(C)(C)C(=O)NCc1ccc(Cl)c(Nc2nc3cc(C(=O)N[C@H]4CC[C@H](C(F)(F)F)CC4)c(N4CCC(C(F)(F)F)CC4)nc3n2C2CC2)c1Cl = 8.40

Kindly note the recorded pIC50 for Cn1c(Nc2c(Cl)ccc(CNC(=O)C(C)(C)C)c2Cl)nc2cc(C(=O)NCC(F)(F)C(F)(F)F)c(N3CCC(C(F)(F)F)CC3)nc21 , which is 8.70
